# Method notes: folding stability dG unfold (combined trypsin and chymotrypsin); higher = more stable
Class field: derived from folding stability dG unfold; ranges low end = under 1 kcal/mol, middle = from 1 kcal/mol up to 3 kcal/mol, high end = 3 kcal/mol and over

Quick check: band for SAGGSAGGSAPKVEPHPVTFTFENAVVTVTRYRVPDEDGNPLYFTSVSVFFLDKDGKPGFVFPSAGGSAGGS [r20_13_TrMRF]
high end

Same question for SAGGMPENMKWRPIPFTQKNPDGLTLKMKIWVFPDPYILIEHEVEDNGKPVAEIPILLPADDPEDLKSAGGS [r16_714_TrROS] please.
low end

Same question for SAGGSKLPKNSKVLIIDLGAPKGIKPNDKVKIPKELIKKIKEKNPNVKFYKEYNIGNKTYIFIVIDSAGGSA [r2_383_TrMRF] please.
middle

Same question for SAGGPISKKKIVTAPVSYDPATGKYTITLTYPDSTYTIPSDLSDLEEALKRAKEKLEKETGIPVETVLGSAG [r5_251_JUSTAS] please.
low end

Same question for SAGGSAGGSAGMEVILLEVDSEEEAEKLVKELSEKYGYPVKVEKDPENPKLVTLTIEKPKSAGGSAGGSAGG [r11_797_JUSTAS] please.
middle

Same question for SAGGSAGGSAGTETKVLFIDENFESVEEAFQALRDLLPDNYKIEPLGVFPAKNKVVVLVTNPSAGGSAGGSA [r18_429_TrMRF] please.
low end

Same question for SAGGKVKVVEIRYFPGTNTVEILVEDPGPYLATIRIPAAPDAPIEIDEDANFRVPDAPVVLGEVRPPSAGGS [r16_515_TrMRF] please.
middle

Same question for SAGGSAGGSAGELTVTVTVLLEDGTAVKIEARFELDENGNLHLEVKVEVVKLPELSPEDLSAGGSAGGSAGG [r11_728_TrROS_Hall] please.
middle

Same question for SVKIKINWQRDPEDGRLYLMIEYRFEDDPQQAIEEIKDILERFGFKVPEIESITVDPGNGEITIPIRIPWSA [r9_876_TrROS] please.
middle

Same question for SAGGSAGGSAGGELKLLSVEEGPNETYTVSSSDGKLTVYTKPPDGSWKSTSLPLEPELLSAGGSAGGSAGGS [r10_99_JUSTAS] please.
low end

Same question for SAGGSAGGSWIWVIKIENPEKGREYTFFIPGPLEDIKDHIREWNPDPDVKVEIQRIPVSPEAFSAGGSAGGS [r12_92_TrROS] please.
middle

Same question for SAMEKVYIKVKFEVEGDPNGKEKKTIELIVENPDPNIGKEKLLEIAKEAVEKFAKENGYKVKISEVEIGSAG [r14_190_TrMRF] please.
high end

Same question for SAGGSAGGSGVLVRITATHPDGSTEEVLEIEVPNDENDPAKLKAIAEELAKKAGMKNIKIELLSAGGSAGGS [r12_569_JUSTAS] please.
middle

Same question for SAGGGSMTPTTTTKTYNVPPELAQKILDGYPLGDKELAAALGLPPDVEVTLVSSDEDTLTVEITIPASAGGS [r16_679_JUSTAS] please.
high end

* * *

# Method notes: folding stability dG unfold (combined trypsin and chymotrypsin); higher = more stable
Measured endpoint: folding stability dG unfold (kcal/mol)
The reply should contain only the number, in kcal/mol.

Fill blank: measured folding stability dG unfold of the sequence SAGGMPADTPVIPIEILDIRVEPDPESDSYTAEVKVRFPDGTEKTFTIKLPKDATLEDVIEKAKELAASAGG [r13_578_TrMRF] is ____.
4.1

Same question for SAGGYKITIPAMFDTPEDALDQVREIARSLGYRITDIKNVEVHKHEDNGMVMVEATIKIEPLPKGQLSAGGS [r16_155_TrROS] please.
1.97

Same question for SMIKIKVVEKKDGKYKIKIENKKTGKTFEFEFDTKEEAEEAEKNPGKTIYLSEEALKKLKKENITKVEKVSA [r9_390_TrROS_Hall] please.
1.11

Same question for SAGGSAGGSKKIKITVVVPKEEAEKLLKELEKAGYKIVSVEKKEIPENELVVIEIVIEKPEELSAGGSAGGS [r12_445_TrROS_Hall] please.
3.65

Same question for SAGGMLVRVTLPSGETVELPVTSLDAAARRLREELGLPAGARLRVEVYDPVTGEVTEYELVIPVPEPVSAGG [r13_145_TrMRF] please.
4.68
